The reported measurements were obtained from patent US20240301062A1.

Listed here: items and their measured pEC50.
assay_system: T1, cyno CLDN6 (cyno)
T1 construct: whole, on cells; also called cynomolgus CLDN6
assay_notes: FACS, HEK293T_cyno-CLDN6 cells
Entry type: numeric. Quantity: pEC50, the -log10 of concentration in molar units.

binder	pEC50
BG87P-21 (antibody, V domains shown) VH: QVQLVQSGAEVKKPGASVKVSCKASGYSFTDYHINWVRQAPGQRLEWMGWIYPGSGYTKYNEKFKGRVTITRDTSASTAYMELSSLRSEDTAVYYCARSGIYHYVSSYYFDHWGKGTTVTVSS VL: DIQMTQSPSTLSASVGDRVTITCKASQDVGTAVAWYQQKPGKAPKLLIYWASTRHTGVPSRFSGSGSGTEFTLTISSLQPDDFATYYCQQYSSYTFGGGTKVEIK	8.05
chimeric BG87P antibody (chBG87P) (antibody, V domains shown) VH: QIQLQQSGPELVKPGASVKISCKASGYSFTDYHINWVKQRPGQGLEWIGWIYPGSGYTKYNEKFKVKATLTVDTSSSTAYMHLTSLTSEDSAVYFCARSGIYHYVSSYYFDHWGQGTTLTVSS VL: DIVMTQSHTFMSTSVGDRVSITCKASQDVGTAVAWYQQKPGQSPKLLIYWASTRHTGVPDRFTGSGSGTDFTLTISNVQSEDLADYFCQQYSSYTFGGGTKLEIK	8.14

Turning now to a further record.
Record BG87P-34 (antibody, V domains shown, Framework-swapped final lead (IGHV3-23 / IGKV1-39); also called BG87-34) VH: EVQLQESGGGLVQPGGSLRLSCAASGYSFSDYHINWVRQAPGKGLEWVGYIYPGSGHTKYNEKFKGRFTISRDTSSNTAYLQMNSLRAEDTAVYYCARSGIYHYVSSYYFDHWGQGTLVTVSS VL: DIQMTQSPSSLSASVGDRVTITCKASQDAGSAVAWYQQKPGKAPKLLIYWASTRHTGVPSRFSGSGSGTDFTLTISSLQPEDFATYYCQQYSSYTFGGGTKLEIK . Reported pEC50: 8.06
